# procedure-text: Binding affinity to AgrC-I extra-loop-I (unknown origin) assessed as dissociation constant incubated for 10 mins by isothermal titration calorimetry analysis
assay-readout: Kd (pM)
Express your answer in pM, writing the number without its unit.

What Kd value was documented for this substance, `H-IKNLWKKMIKLWY-OH` ?
1
